Attribute: pEC50
Target Or Test System: Prkaa1/Prkab2/Prkag1 (Rattus norvegicus, UniProt P54645+P80385+Q9QZH4)
Sequence (P54645 whole entry): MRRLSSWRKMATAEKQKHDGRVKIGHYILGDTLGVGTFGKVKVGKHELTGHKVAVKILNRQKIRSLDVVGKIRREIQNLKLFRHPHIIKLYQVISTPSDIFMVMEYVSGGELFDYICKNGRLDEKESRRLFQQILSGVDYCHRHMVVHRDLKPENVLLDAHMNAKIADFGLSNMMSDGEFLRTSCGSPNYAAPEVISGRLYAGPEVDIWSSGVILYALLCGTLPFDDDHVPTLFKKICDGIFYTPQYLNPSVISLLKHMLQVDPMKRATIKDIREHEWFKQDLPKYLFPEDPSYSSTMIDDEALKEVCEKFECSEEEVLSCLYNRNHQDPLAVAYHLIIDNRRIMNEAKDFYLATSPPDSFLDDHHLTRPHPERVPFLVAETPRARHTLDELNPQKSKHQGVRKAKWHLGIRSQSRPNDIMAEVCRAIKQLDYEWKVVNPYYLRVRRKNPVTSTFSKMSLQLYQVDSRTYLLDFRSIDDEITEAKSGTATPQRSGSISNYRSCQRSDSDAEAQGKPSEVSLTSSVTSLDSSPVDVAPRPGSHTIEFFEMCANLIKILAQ
Sequence (P80385 whole entry): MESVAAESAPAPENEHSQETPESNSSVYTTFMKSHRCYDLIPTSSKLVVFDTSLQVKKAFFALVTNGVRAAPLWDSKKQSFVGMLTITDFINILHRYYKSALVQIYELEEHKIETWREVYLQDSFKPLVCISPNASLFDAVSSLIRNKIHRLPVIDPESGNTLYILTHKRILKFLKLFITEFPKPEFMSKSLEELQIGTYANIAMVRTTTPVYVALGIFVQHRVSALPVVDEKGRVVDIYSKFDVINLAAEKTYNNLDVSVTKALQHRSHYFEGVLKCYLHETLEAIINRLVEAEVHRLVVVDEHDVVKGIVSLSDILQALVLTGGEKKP
Sequence (Q9QZH4 whole entry): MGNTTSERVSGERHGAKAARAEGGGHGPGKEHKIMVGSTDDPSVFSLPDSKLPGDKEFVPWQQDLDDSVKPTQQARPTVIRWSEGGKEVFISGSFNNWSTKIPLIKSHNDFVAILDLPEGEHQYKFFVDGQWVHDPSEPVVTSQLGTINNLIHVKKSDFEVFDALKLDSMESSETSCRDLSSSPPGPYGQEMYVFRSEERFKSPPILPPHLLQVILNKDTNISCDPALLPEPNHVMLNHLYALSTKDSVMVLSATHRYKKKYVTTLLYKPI
Assay Name: Activation of rat hepatocytes AMPK alpha1/beta2/gamma1 expressed in baculovirus infected Sf9 cells
pEC50: −log10 of the molar value.
Attribute Measured: pEC50

In [3]: df
Out[3]:
                                chem_smiles  attribute_measured  recorded_measurement
0  O[C@@H]1CO[C@H]2[C@@H]1OC[C@H]2Oc1nc2nc(-c3ccc(-c4ccccc4)cc3)c(Cl)cc2[nH]1               pEC50                  8.12
1  Cc1ccc(Oc2nc3cc(-c4ccc(-c5ccccc5)cc4)c(Cl)cc3[nH]2)cc1C(=O)O               pEC50                  7.40
